target: human IL-1RAcP on cells (human, UniProt Q9NPH3 21-570); assay: cell-based or functional assay
Listed binders paired with reported IC50, IFNγ release, PBMC stimulated with IL-1β
Report only the number, with the unit nM understood.

Form field: reported IC50, IFNγ release, PBMC stimulated with IL-1β of R001031 (CAN04) (antibody, human IgG1, kappa, V domains shown, Variable domains of prior art CAN04 on human IgG1 kappa constant regions with AEASS) VH: QVQLVQSGAEVKKPGSSVKVSCKASGYAFSSSWMNWVRQAPGQGLEWMGRIYPGDGNTHYAQKFQGRVTLTADKSTSTAYMELSSLRSEDTAVYYCGEGYLDPMDYWGQGTLVTVSS VL: DIQMTQSPSSLSASVGDRVTITCSASQGINNYLNWYQQKPGKAPKLLIHYTSGLHAGVPSRFSGSGSGTDYTLTISSLQPEDVATYYCQQYSILPWTFGGGTKVEIKR
3.5

Further cases:
Name the reported IC50, IFNγ release, PBMC stimulated with IL-1β value associated with the binder Y024148_h_IgG1f_AEASS (antibody, V domains shown, Human IgG1f with AEASS effector-silencing residues, kappa light chain) VH: EVQLVESGGGLVQPGGSLRLSCAASGGTIGGSAVHWVRQAPGKGLVWVSRILTYSSTTQYAESVKGRFTISRDNAKNTLYLQMNSLRAEDTAVYYCARGSSEYPKFDIWGQGTLVTVSS VL: DIQMTQSPSTLSASVGDRVTITCRASQSISSWLAWYQQKPGKAPKLLIYDASSLESGVPSRFSGSGSGTEFTLTISSLQPEDFATYYCHQLLIYPHTFGQGTKVEIKR
1.2

Given the binder Y024149_h_IgG1f_AEASS (antibody, V domains shown, Human IgG1f with AEASS effector-silencing residues, kappa light chain) VH: EVQLVESGGGLVQPGGSLRLSCAASGGTFGGSAMHWVRQAPGKGLVWVSRILTYGGIATYAESVKGRFTISRDNAKNTLYLQMNSLRAEDTAVYYCARGSSEYPKFDIWGQGTLVTVSS VL: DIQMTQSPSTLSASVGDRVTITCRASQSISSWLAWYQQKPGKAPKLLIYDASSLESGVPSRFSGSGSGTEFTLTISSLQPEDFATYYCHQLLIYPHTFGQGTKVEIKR , what is its reported IC50, IFNγ release, PBMC stimulated with IL-1β?
1.7

State the recorded IC50, IFNγ release, PBMC stimulated with IL-1β for this entry: Y024084_h_IgG1f_AEASS (antibody, V domains shown, also called Morphosys 24084; Mor Y024084) VH: QVQLVQSGAEVKKPGASVKVSCKASGYTFTSYYMHWVRQAPGQGLEWMGIINPSGGSTSYAQKFQGRVTMTRDTSTSTVYMELSSLRSEDTAVYYCARGFVTSGIDYWGQGTLVTVSS VL: QSVLTQPPSVSAAPGQKVTISCSGSSSNIGNNYVSWYQQLPGTAPKLLIYDNNKRPSGIPDRFSGSKSGTSATLGITGLQTEDEADYYCQTWTYTGRLWIVFGGGTKLTVLG
5.2

I have this binder here, R001032 (1A05) (antibody, human IgG1, kappa, V domains shown, Rabbit variable domains of prior art 1A05 on human IgG1 kappa constant regions with AEASS; also called P013.S.01.B.A05) VH: LEQSGGGAEGGLVKPGGSLELCCKASGFSLSTSYWRCWVRQAPGKGLEWIGCIYAGSGDVTYYANWVNGRFTLSRDIDQSTGCLQLNSLTAADTAMYYCASGVGFGYFNLWGQGTLVTVSS VL: ALVMTQTPSPVSAAVGGTVTINCQASEDIYSNLAWFQQKPGQPPKLLIYDASTLASGVPSRFSGSGSGTEFTLTISGLQSDDAATYYCLGVYTHISADNAFGGGTEVVVKR , and I need its recorded IC50, IFNγ release, PBMC stimulated with IL-1β.
5

Return reported IC50, IFNγ release, PBMC stimulated with IL-1β; argument: h11C5 YKD (antibody, human IgG1, kappa, V domains shown, Variable domains of h11C5 YKD on the same modified IgG1 kappa constant regions (AEASS); Printed as 'h1105' in much of the text; also called h1105) VH: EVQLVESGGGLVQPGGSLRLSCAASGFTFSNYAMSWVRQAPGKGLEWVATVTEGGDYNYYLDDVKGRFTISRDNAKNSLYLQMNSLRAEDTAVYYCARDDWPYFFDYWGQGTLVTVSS VL: DIQMTQSPSSLSASVGDRVTITCRASENIYSNLAWYQQKPGKSPKLLVYGYKNLADVPSRFSGSGSGTDYTLTISSLQPEDFATYYCQHFKTTPRTFGGGTKVEIKR
4.6
